Target: MPSK1 (Homo sapiens, UniProt O75716)
Construct: gene STK16; catalytic domain-containing construct
Sequence (O75716 whole entry, the tested form may be a part): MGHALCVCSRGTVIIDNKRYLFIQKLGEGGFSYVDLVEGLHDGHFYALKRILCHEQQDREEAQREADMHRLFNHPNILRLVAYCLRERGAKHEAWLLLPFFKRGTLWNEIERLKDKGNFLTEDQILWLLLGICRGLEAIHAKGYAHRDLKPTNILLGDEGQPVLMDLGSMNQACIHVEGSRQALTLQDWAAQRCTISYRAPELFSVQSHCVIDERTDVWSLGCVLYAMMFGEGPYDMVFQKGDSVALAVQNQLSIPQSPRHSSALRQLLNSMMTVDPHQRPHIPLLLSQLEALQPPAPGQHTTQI
Assay: biochemical
Set-up: Thermal shift assay (DSF, SYPRO Orange), 2 uM kinase domain, mean delta Tm of triplicates versus DMSO
Conditions: read-out: MPSK1
Hi there, I'd appreciate the recorded ΔTm at 12.5 µM for every entry that follows.
Report as a plain number; the unit °C is understood.

## Task Bench note: what ΔTm at 12.5 µM did C[C@H](Nc1ncnc2nc[nH]c12)c1cc2cccc(Cl)c2c(=O)n1-c1ccccc1 show?
## Result 0.847

## Task Continue with Cc1ccc(C(=O)Nc2ccc(CN3CCN(C)CC3)c(C(F)(F)F)c2)cc1C#Cc1cnc2cccnn12
## Result 2.24

## Task Continue with COc1cc2ncnc(Nc3ccc(F)c(Cl)c3)c2cc1OCCCN1CCOCC1
## Result 0.263

## Task Continue with COc1ccc(-c2cc3c(C)nc(N)nc3n([C@H]3CC[C@H](OCCO)CC3)c2=O)cn1
## Result 1.43

====

Biological target: MPSK1 (Homo sapiens, UniProt O75716)
Construct: gene STK16; catalytic domain-containing construct
Assay: biochemical
Design: Thermal shift assay (DSF, SYPRO Orange), 2 uM kinase domain, mean delta Tm of triplicates versus DMSO
Settings: read-out: MPSK1
Mark Fulfilled for reported ΔTm at 12.5 µM of 4 °C or greater; mark Not fulfilled for anything smaller.

## Task Tell me whether ΔTm at 12.5 µM is at least 4 °C here: CNC(=O)c1nn(C)c2c1C(C)(C)Cc1cnc(Nc3ccc(N4CCN(C)CC4)cc3)nc1-2
## Result Fulfilled

## Task Continue with CS(=O)(=O)N1CCN(Cc2cc3nc(-c4cccc5[nH]ncc45)nc(N4CCOCC4)c3s2)CC1
## Result Fulfilled

## Task Continue with O=C(Nc1ccc2[nH]nc(-c3ccncc3)c2c1)[C@@H]1CCN(CC(=O)N2CCN(c3ccc(-c4ncccn4)cc3)CC2)C1
## Result Not fulfilled

## Task Continue with CC(C)(C)c1cnc(CSc2cnc(NC(=O)C3CCNCC3)s2)o1
## Result Not fulfilled

## Task Continue with CN(c1ccccc1CNc1nc(Nc2ccc3c(c2)CC(=O)N3)ncc1C(F)(F)F)S(C)(=O)=O
## Result Fulfilled

## Task Continue with CO[C@@H](C(=O)N1Cc2[nH]nc(NC(=O)c3ccc(N4CCN(C)CC4)cc3)c2C1)c1ccccc1
## Result Not fulfilled

## Task Continue with C[C@@H](Oc1cc(-c2cnn(C3CCNCC3)c2)cnc1N)c1c(Cl)ccc(F)c1Cl
## Result Not fulfilled

## Task Continue with Cc1c(Cn2c(C)nc3c(C(=O)O)cc(N4CCOCC4)cc32)cccc1C(F)(F)F
## Result Not fulfilled

## Task Continue with Cc1c(CN2CCN(C(=O)[C@H](C)O)CC2)sc2c(N3CCOCC3)nc(-c3cnc(N)nc3)nc12
## Result Not fulfilled

## Task Continue with Cc1cc(Nc2cc(CN3CCOCC3)c3nc(C)c(Cc4ccc(Cl)cc4F)n3n2)n[nH]1
## Result Fulfilled

## Task Continue with CCCS(=O)(=O)Nc1ccc(F)c(C(=O)c2c[nH]c3ncc(-c4ccc(Cl)cc4)cc23)c1F
## Result Fulfilled

## Task Continue with Cn1c(=O)c(F)c(Nc2ccc(I)cc2F)c2c(=O)n(C[C@@H](O)CO)cnc21
## Result Not fulfilled

## Task Continue with Nc1cc(C(F)(F)F)c(-c2cc(N3CCOCC3)nc(N3CCOCC3)n2)cn1
## Result Not fulfilled

## Task Continue with COC(=O)c1ccc2c(c1)NC(=O)/C2=C(\Nc1ccc(N(C)C(=O)CN2CCN(C)CC2)cc1)c1ccccc1
## Result Fulfilled

## Task Continue with CCn1c(-c2nonc2N)nc2cnc(Oc3cccc(NC(=O)c4ccc(OCCN5CCOCC5)cc4)c3)cc21
## Result Not fulfilled

## Task Continue with C#Cc1cccc(Nc2ncnc3cc(OC)c(OCCCCCCC(=O)NO)cc23)c1
## Result Not fulfilled

====

Target: BIKE (Homo sapiens, UniProt Q9NSY1)
Construct: gene BMP2K; catalytic domain-containing construct
Sequence (Q9NSY1 whole entry, the tested form may be a part): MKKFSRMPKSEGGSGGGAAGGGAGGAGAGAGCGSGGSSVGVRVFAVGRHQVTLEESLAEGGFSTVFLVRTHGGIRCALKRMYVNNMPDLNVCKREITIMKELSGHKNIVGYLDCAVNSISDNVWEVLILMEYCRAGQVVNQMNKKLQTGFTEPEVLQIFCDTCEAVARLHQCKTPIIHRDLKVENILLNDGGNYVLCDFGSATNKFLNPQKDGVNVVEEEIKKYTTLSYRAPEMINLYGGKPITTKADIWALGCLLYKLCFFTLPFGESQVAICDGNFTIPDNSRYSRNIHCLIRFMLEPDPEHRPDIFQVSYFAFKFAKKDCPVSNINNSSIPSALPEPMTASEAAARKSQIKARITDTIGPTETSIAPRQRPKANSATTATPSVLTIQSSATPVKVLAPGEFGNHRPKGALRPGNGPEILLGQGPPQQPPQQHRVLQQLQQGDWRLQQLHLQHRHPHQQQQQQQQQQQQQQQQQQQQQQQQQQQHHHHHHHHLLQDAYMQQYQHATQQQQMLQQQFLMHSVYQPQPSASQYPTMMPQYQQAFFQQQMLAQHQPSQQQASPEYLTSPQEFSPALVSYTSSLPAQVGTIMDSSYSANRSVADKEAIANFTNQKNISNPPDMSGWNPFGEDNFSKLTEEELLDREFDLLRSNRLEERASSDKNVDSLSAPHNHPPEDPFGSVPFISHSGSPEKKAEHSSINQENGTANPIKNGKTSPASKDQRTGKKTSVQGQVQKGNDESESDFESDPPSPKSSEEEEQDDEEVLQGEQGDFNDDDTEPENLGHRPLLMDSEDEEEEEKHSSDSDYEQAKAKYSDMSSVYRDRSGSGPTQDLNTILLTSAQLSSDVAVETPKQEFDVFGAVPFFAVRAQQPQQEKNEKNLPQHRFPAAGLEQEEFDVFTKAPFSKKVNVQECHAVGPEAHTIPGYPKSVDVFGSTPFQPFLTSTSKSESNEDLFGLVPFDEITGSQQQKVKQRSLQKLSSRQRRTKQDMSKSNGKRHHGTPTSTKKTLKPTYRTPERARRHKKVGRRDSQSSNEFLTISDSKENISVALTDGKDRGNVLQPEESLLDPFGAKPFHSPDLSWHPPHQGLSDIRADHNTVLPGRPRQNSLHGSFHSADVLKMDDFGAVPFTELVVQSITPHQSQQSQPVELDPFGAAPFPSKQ
Test: biochemical
Set-up: Thermal shift assay (DSF, SYPRO Orange), 2 uM kinase domain, mean delta Tm of triplicates versus DMSO
Conditions: read-out: BIKE
measured endpoint: ΔTm at 12.5 µM (°C)
Report as a plain number; the unit °C is understood.

## Task Bench note: what ΔTm at 12.5 µM did CCc1cnn2c(NCc3ccc[n+]([O-])c3)cc(N3CCCC[C@H]3CCO)nc12 [Dinaciclib] show?
## Result 0.5

## Task Continue with CNC(=O)c1cc(Oc2ccc(NC(=O)Nc3ccc(Cl)c(C(F)(F)F)c3)cc2)ccn1 [Sorafenib]
## Result 0.73

## Task Continue with CC(C)(C)c1cnc(CSc2cnc(NC(=O)C3CCNCC3)s2)o1 [SNS-032]
## Result 1.11

## Task Continue with COc1ccc(-c2ccc3c(N4CCOC[C@@H]4C)nc(N4CCOC[C@@H]4C)nc3n2)cc1CO [AZD8055]
## Result 0.12

## Task Continue with CN1CC[C@H](c2c(O)cc(O)c3c(=O)cc(-c4ccccc4Cl)oc23)[C@H](O)C1 [Alvocidib]
## Result 1.46

## Task Continue with CNC(=O)c1nn(C)c2c1C(C)(C)Cc1cnc(Nc3ccc(N4CCN(C)CC4)cc3)nc1-2 [Milciclib]
## Result 7.73

## Task Continue with COc1cc(Nc2ncc3c(n2)-c2ccc(Cl)cc2C(c2c(F)cccc2OC)=NC3)ccc1C(=O)O [Alisertib]
## Result 0.78

## Task Continue with Cc1ccc(NC(=O)c2ccc(CN3CCN(C)CC3)cc2)cc1Nc1nc(-c2cccnc2)cs1 [Masitinib]
## Result 0.833

## Task Continue with Nc1cc(C(F)(F)F)c(-c2cc(N3CCOCC3)nc(N3CCOCC3)n2)cn1 [Buparlisib]
## Result 0.573

## Task Continue with Cc1ccc([N+](=O)[O-])cc1S(=O)(=O)N(C)/N=C/c1cnc2ccc(Br)cn12 [PIK-75]
## Result 7.9

## Task Continue with CC(=O)Nc1cccc(-n2c(=O)n(C3CC3)c(=O)c3c(Nc4ccc(I)cc4F)n(C)c(=O)c(C)c32)c1 [Trametinib]
## Result 0.423

## Task Continue with CO[C@@H](C(=O)N1Cc2[nH]nc(NC(=O)c3ccc(N4CCN(C)CC4)cc3)c2C1)c1ccccc1 [Danusertib]
## Result 1.68

## Task Continue with C=CC(=O)N1CCC[C@@H](n2nc(-c3ccc(Oc4ccccc4)cc3)c3c(N)ncnc32)C1 [Ibrutinib]
## Result 0.397

## Task Continue with Cn1cnc2c(F)c(Nc3ccc(Br)cc3Cl)c(C(=O)NOCCO)cc21 [Selumetinib]
## Result 0.227

## Task Continue with NC1(c2ccc(-c3nc4ccn5c(=O)[nH]nc5c4cc3-c3ccccc3)cc2)CCC1 [MK-2206]
## Result 0.637

## Task Continue with COc1cc2c(Oc3ccc(NC(=O)C4(C(=O)Nc5ccc(F)cc5)CC4)cc3F)ccnc2cc1OCCCN1CCOCC1 [Foretinib]
## Result 1.32

## Task Continue with Cc1cnc(Nc2ccc(OCCN3CCCC3)cc2)nc1Nc1cccc(S(=O)(=O)NC(C)(C)C)c1 [Fedratinib]
## Result 14

## Task Continue with CCn1c(-c2nonc2N)nc2cnc(Oc3cccc(NC(=O)c4ccc(OCCN5CCOCC5)cc4)c3)cc21 [GSK269962]
## Result 6.73

## Task Continue with CN1CCN(c2ccc3nc(-c4c(N)c5c(F)cccc5[nH]c4=O)[nH]c3c2)CC1 [Dovitinib]
## Result 0.12

## Task Continue with CC(C)(C)Cn1c(N)nc2ccc(-c3[nH]c(C(C)(C)C)nc3-c3ccc(F)cc3)nc21 [Ralimetinib]
## Result 1.12

## Task Continue with Cn1c(=O)c(F)c(Nc2ccc(I)cc2F)c2c(=O)n(C[C@@H](O)CO)cnc21 [TAK-733]
## Result 0.177

## Task Continue with C[C@@H](Oc1cc(-c2cnn(C3CCNCC3)c2)cnc1N)c1c(Cl)ccc(F)c1Cl [Crizotinib]
## Result 7.44

## Task Continue with Cc1nc(Nc2ncc(C(=O)Nc3c(C)cccc3Cl)s2)cc(N2CCN(CCO)CC2)n1 [Dasatinib]
## Result -0.673

## Task Continue with COc1ccc(-c2cc3c(C)nc(N)nc3n([C@H]3CC[C@H](OCCO)CC3)c2=O)cn1 [PF-04691502]
## Result 0.623

## Task Continue with COc1cc(OC2CCN(C)CC2)ccc1Nc1ncc2c(n1)n(C1CCCC1)c(=O)n2C [AZ3146]
## Result 6.16

## Task Continue with CN(C)C[C@@H]1CCn2cc(c3ccccc32)C2=C(C(=O)NC2=O)c2cn(c3ccccc23)CCO1 [Ruboxistaurin]
## Result 9.4

## Task Continue with CC[C@H](Nc1ncnc2[nH]cnc12)c1nc2cccc(F)c2c(=O)n1-c1ccccc1 [Idelalisib]
## Result 0.527

## Task Continue with C[C@]1(O)C[C@@H](c2nc(-c3ccc4ccc(-c5ccccc5)nc4c3)c3c(N)nccn32)C1 [Linsitinib]
## Result 0.903

## Task Continue with COc1cc(N2CCC(N3CCN(C)CC3)CC2)ccc1Nc1ncc(Cl)c(Nc2ccccc2P(C)(C)=O)n1 [AP26113]
## Result 8.42

## Task Continue with O=S(=O)(c1cccc2cnccc12)N1CCCNCC1 [Fasudil]
## Result 7

## Task Continue with COc1cc(CCc2cc(NC(=O)c3ccc(N4C[C@@H](C)N[C@@H](C)C4)cc3)n[nH]2)cc(OC)c1 [AZD4547]
## Result 5.45

## Task Continue with COc1cc2/c(=N/c3ccc(Br)cc3F)nc[nH]c2cc1OCC1CCN(C)CC1 [Vandetanib]
## Result 0.127
